Can you tell me IC50 for the items I'm about to list?
target: human Werner helicase (WRN-BV08, Uniprot Q14191, amino acids 517-1235 with L1074F point mutation) (Homo sapiens, UniProt Q14191, L1074F); construct: Uniprot Q14191, amino acids 517-1235 with L1074F point mutation; TEV-cleavable 8×His (C, cleaved yes); made in house; host or cells: Sf9 insect cells (baculovirus); test: WRN (BV08) ADP-Glo Assay; format: biochemical; details: 0.15 nM WRN, 5 μM ATP, 0.1 nM DNA duplex, 15 min preincubation, 60 min at 25° C., pH 7.5, 1% DMSO; read-out: ADP-Glo_hWRN_IC50
Sequence (Q14191 with tags, fused parts or gaps L1074F limits assumed): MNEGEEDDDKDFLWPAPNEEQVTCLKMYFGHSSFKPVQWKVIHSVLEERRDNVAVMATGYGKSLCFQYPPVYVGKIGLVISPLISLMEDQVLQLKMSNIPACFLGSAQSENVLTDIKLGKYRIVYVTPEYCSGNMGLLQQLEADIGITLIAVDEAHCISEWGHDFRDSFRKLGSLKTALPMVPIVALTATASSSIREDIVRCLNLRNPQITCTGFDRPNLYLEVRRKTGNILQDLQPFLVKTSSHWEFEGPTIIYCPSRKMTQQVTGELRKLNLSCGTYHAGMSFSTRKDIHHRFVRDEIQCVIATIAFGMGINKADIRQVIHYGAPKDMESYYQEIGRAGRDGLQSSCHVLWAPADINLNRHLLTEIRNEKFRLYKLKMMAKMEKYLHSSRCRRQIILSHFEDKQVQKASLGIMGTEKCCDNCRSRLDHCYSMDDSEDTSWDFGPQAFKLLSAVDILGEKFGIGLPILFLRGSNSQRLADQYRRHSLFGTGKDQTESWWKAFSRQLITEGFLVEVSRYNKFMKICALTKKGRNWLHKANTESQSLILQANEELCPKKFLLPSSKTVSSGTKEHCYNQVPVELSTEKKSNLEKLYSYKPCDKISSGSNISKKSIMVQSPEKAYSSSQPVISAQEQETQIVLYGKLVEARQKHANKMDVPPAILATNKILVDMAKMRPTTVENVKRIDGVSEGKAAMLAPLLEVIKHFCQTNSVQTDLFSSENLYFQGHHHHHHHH

Could you share which IC50 value was measured for O=C([C@H]1CC[C@@H](c2ccccc2)O1)N(Cc1ccncc1)C1C=CS(=O)(=O)C1 (mixture of isomers) ?
> 50 µM

Could you share which IC50 value was measured for Cc1cccn1-c1ccc(CC(=O)N(Cc2cncnc2)C2C=CS(=O)(=O)C2)c(F)c1 (stereo not drawn) ?
10 to 50 µM

Could you share which IC50 value was measured for O=C(N[C@H](Cc1c[nH]c2ccccc12)C(=O)N(Cc1ccncc1)C1C=CS(=O)(=O)C1)C1CC1 (stereo partly drawn) ?
> 50 µM

Could you share which IC50 value was measured for CC(C)(O)c1cc(CN(C(=O)Cn2ncc(-c3cc(F)c(F)c(F)c3)c2Cl)C2C=CS(=O)(=O)C2)ccn1 (single isomer, unassigned) ?
< 0.5 µM

Could you share which IC50 value was measured for COc1cc(CN(C(=O)C(C(=O)N(C)CC2CC(F)(F)C2)c2ccc(-c3ccc(F)c(F)c3)cc2F)[C@@H]2C=CS(=O)(=O)C2)ccn1 (stereo partly drawn) ?
< 0.5 µM

Could you share which IC50 value was measured for CC(C)(O)c1cc(CN(C(=O)Cn2cc(-c3ccc(F)cc3)cn2)[C@@H]2C=CS(=O)(=O)C2)ccn1 ?
< 0.5 µM

Could you share which IC50 value was measured for O=C1NC(c2ccccc2)CCN1CC(=O)N(Cc1ccncc1)C1C=CS(=O)(=O)C1 (stereo not drawn) ?
10 to 50 µM

Could you share which IC50 value was measured for O=C(C1Cc2ccc(-n3cccc3)cc2C1)N(Cc1ccncc1)C1C=CS(=O)(=O)C1 (stereo not drawn) ?
> 50 µM

Could you share which IC50 value was measured for COCCN(C)C(=O)C(C(=O)N(Cc1ccnc(C(C)(C)O)c1)[C@@H]1C=CS(=O)(=O)C1)c1ccc(-c2ccc(F)c(F)c2)cc1F (stereo partly drawn) ?
< 0.5 µM

Could you share which IC50 value was measured for O=C(Cc1ccc(-n2cccc2)cc1)N(Cc1ccc2nccnc2c1)C1C=CS(=O)(=O)C1 (stereo not drawn) ?
5 to 10 µM

Could you share which IC50 value was measured for COc1cc(CN(C(=O)Cn2cc(-c3ccc(F)c(F)c3)cn2)[C@@H]2C=CS(=O)(=O)C2)ccn1 ?
< 0.5 µM

Could you share which IC50 value was measured for O=C(Cc1ccc(-n2cccc2)cc1)N(Cc1cccc2cccnc12)C1C=CS(=O)(=O)C1 (stereo not drawn) ?
5 to 10 µM

Could you share which IC50 value was measured for COC(C(=O)N(Cc1ccncc1)C1C=CS(=O)(=O)C1)c1ccc(-c2ccc(F)cc2)cc1 (single isomer, unassigned) [I-330] ?
10 to 50 µM

Could you share which IC50 value was measured for O=C(Cn1cc(-c2ccc(F)c(F)c2)cn1)N(Cc1nc([C@H]2C[C@H]2F)cs1)C1C=CS(=O)(=O)C1 (stereo partly drawn) ?
< 0.5 µM

Could you share which IC50 value was measured for CC(C)(O)c1cc(CN(C(=O)Cc2ccc(-n3cccc3)cc2)C2C=CS(=O)(=O)C2)ccn1 (stereo not drawn) ?
0.5 to 5 µM

Could you share which IC50 value was measured for CN(C)C(=O)C(C(=O)N(Cc1ccnc(C(C)(C)O)c1)C1C=CS(=O)(=O)C1)c1ccc(-c2ccc(F)cc2)cc1 (single isomer, unassigned) [I-309] ?
10 to 50 µM

Could you share which IC50 value was measured for O=C(Cc1csc(-c2ccccc2)n1)N(Cc1ccncc1)C1C=CS(=O)(=O)C1 (stereo not drawn) ?
> 50 µM

Could you share which IC50 value was measured for O=C(Cc1ncc(-c2ccc(F)cc2)cc1F)N(Cc1ccncc1)C1C=CS(=O)(=O)C1 (stereo not drawn) ?
0.5 to 5 µM

Could you share which IC50 value was measured for COc1cc(CN(C(=O)C2CCc3c([nH]c4cccc(Cl)c34)C2)[C@@H]2C=CS(=O)(=O)C2)ccn1 (stereo partly drawn) ?
> 50 µM

Could you share which IC50 value was measured for COc1ccc(CN(C(=O)Cc2ccc(-n3cccc3)cc2)C2C=CS(=O)(=O)C2)cc1OC (stereo not drawn) ?
10 to 50 µM

Could you share which IC50 value was measured for O=C(Cc1ccc(S(F)(F)(F)(F)F)cc1)N(Cc1ccnc(OC(F)F)c1)C1C=CS(=O)(=O)C1 (stereo not drawn) ?
0.5 to 5 µM

Could you share which IC50 value was measured for O=C(Cc1ccc(-n2cccn2)cc1)N(Cc1ccncc1)C1C=CS(=O)(=O)C1 (stereo not drawn) ?
> 50 µM

Could you share which IC50 value was measured for CC(F)(F)c1csc(CN(C(=O)Cc2ccc(S(F)(F)(F)(F)F)cc2)C2C=CS(=O)(=O)C2)n1 (stereo not drawn) ?
< 0.5 µM

Could you share which IC50 value was measured for O=C1CC(c2ccc(F)cc2)CCN1CC(=O)N(Cc1ccncc1)C1C=CS(=O)(=O)C1 (stereo not drawn) ?
> 50 µM

Could you share which IC50 value was measured for O=C(Cn1cc2ccc(C(F)(F)F)cc2n1)N(Cc1ccncc1)C1C=CS(=O)(=O)C1 (stereo not drawn) ?
0.5 to 5 µM

Could you share which IC50 value was measured for O=C(O)c1ccc(CN(C(=O)Cc2ccc(-n3cccc3)cc2F)C2C=CS(=O)(=O)C2)cc1 (stereo not drawn) ?
0.5 to 5 µM

Could you share which IC50 value was measured for Cc1cccn1-c1ccc(CC(=O)N(Cc2ccnc(OCC(F)(F)F)c2)C2C=CS(=O)(=O)C2)c(F)c1 (stereo not drawn) ?
< 0.5 µM

Could you share which IC50 value was measured for O=C(Cc1ccc(-n2cccc2)cc1)N(Cc1ncccn1)C1C=CS(=O)(=O)C1 (stereo not drawn) ?
> 50 µM

Could you share which IC50 value was measured for CC(C)(O)c1cc(CN(C(=O)Cc2ccc(OC(F)(F)C(F)(F)F)cc2)C2C=CS(=O)(=O)C2)ccn1 (single isomer, unassigned) ?
< 0.5 µM

Could you share which IC50 value was measured for COCC(C(=O)N(Cc1ccnc(OC)c1)C1C=CS(=O)(=O)C1)n1cc(-c2ccccc2)cn1 (stereo not drawn) ?
10 to 50 µM

====

Can you tell me pIC50 for the items I'm about to list?
Biological target: human Werner helicase (WRN-BV08, Uniprot Q14191, amino acids 517-1235 with L1074F point mutation) (Homo sapiens, UniProt Q14191, L1074F)
Construct: Uniprot Q14191, amino acids 517-1235 with L1074F point mutation; TEV-cleavable 8×His (C, cleaved yes); made in house; host or cells: Sf9 insect cells (baculovirus)
Test: WRN (BV08) ADP-Glo Assay
Assay type: biochemical
Details: 0.15 nM WRN, 5 μM ATP, 0.1 nM DNA duplex, 15 min preincubation, 60 min at 25° C., pH 7.5, 1% DMSO; read-out: ADP-Glo_hWRN_IC50
From the text: Example 2: WRN (BV08) ADP-Glo Assay Protocol Bovine skin gelatin (BSG), dimethyl sulfoxide (DMSO), Pluronic F-127 and Tris(2-carboxyethyl)phosphine hydrochloride solution (TCEP) were purchased from Sigma-Aldrich at the highest level of purity possible. […] The reaction was stopped by the addition of the ADP-Glo Kit components (Promega) as directed and the relative luminescence units (RLU) were read on an Envision 2104 (Perkin Elmer). […]
pIC50: −log10 of the molar value.

Could you share which pIC50 value was measured for C=CCOC(C(=O)N(Cc1ccnc(C(C)(C)O)c1)[C@@H]1C=CS(=O)(=O)C1)c1ccc(-c2ccc(F)c(F)c2)cc1F (single isomer, unassigned) [I-641] ?
> 6.30

Could you share which pIC50 value was measured for CC(C)(O)c1cc(CN(C(=O)Cc2cc(-c3ccc(F)c(F)c3)n[nH]2)C2C=CS(=O)(=O)C2)ccn1 (single isomer, unassigned) [I-781] ?
4.30 to 5.00

Could you share which pIC50 value was measured for CN(C)C(=O)C(C(=O)N(Cc1ccnc(C(C)(C)O)c1)C1C=CS(=O)(=O)C1)c1ccc(-c2ccc(F)cc2)cc1F (single isomer, unassigned) [I-237] ?
5.00 to 5.30

Could you share which pIC50 value was measured for Cc1cccn1-c1ccc(CC(=O)N(Cc2ccncn2)C2C=CS(=O)(=O)C2)c(F)c1 (stereo not drawn) [I-181] ?
5.30 to 6.30

Could you share which pIC50 value was measured for O=C(Cn1cc(C2CC2)cn1)N(Cc1ccncc1)C1C=CS(=O)(=O)C1 (stereo not drawn) [I-429] ?
< 4.30

Could you share which pIC50 value was measured for CC(C)(O)c1cc(CN(C(=O)Cc2ccc(C(F)(F)F)cc2F)C2C=CS(=O)(=O)C2)ccn1 (stereo not drawn) [I-128] ?
5.30 to 6.30

Could you share which pIC50 value was measured for COc1cc(CN(C(=O)C(OC)c2ccc(-c3ccc(F)cc3)cc2F)C2C=CS(=O)(=O)C2)ccn1 (single isomer, unassigned) [I-33] ?
> 6.30

Could you share which pIC50 value was measured for O=C(Cc1ccc(-c2ccccc2)cc1)N(Cc1ccncc1)C1C=CS(=O)(=O)C1 (stereo not drawn) [I-323] ?
4.30 to 5.00

Could you share which pIC50 value was measured for O=C(CCCC[C@@H]1SC[C@@H]2NC(=O)N[C@@H]21)NCCOCCOCCOCCOCCOCCOCCC(=O)N1CCN(Cc2ccc(CN(C(=O)Cc3ccc(-n4cccc4)cc3F)C3C=CS(=O)(=O)C3)cc2)CC1 (stereo partly drawn) [II-4] ?
4.30 to 5.00

Could you share which pIC50 value was measured for COc1cc(CN(C(=O)Cc2ccc(-c3cccc(F)c3)cc2F)C2C=CS(=O)(=O)C2)ccn1 (stereo not drawn) [I-91] ?
5.30 to 6.30

Could you share which pIC50 value was measured for COc1cc(CN(C(=O)C(C(=O)N(C)C)c2ccc(-c3ccc(F)cc3)cc2F)C2C=CS(=O)(=O)C2)ccn1 (single isomer, unassigned) [I-312] ?
< 4.30

Could you share which pIC50 value was measured for O=C(Cc1ccc(-n2cccc2)cc1)N(c1ccccc1)C1C=CS(=O)(=O)C1 (stereo not drawn) [I-421] ?
< 4.30

Could you share which pIC50 value was measured for CC(C)(O)c1cc(CN(C(=O)Cn2cc(-c3ccc(F)c(F)c3)cn2)[C@@H]2C=CS(=O)(=O)C2)ccn1 [I-6] ?
> 6.30

Could you share which pIC50 value was measured for O=C([C@@H]1CC[C@@H](c2ccccc2)C1)N(Cc1ccncc1)C1C=CS(=O)(=O)C1 (mixture of isomers) [I-655] ?
< 4.30

Could you share which pIC50 value was measured for N#Cc1cc(F)ccc1-c1ccc(CC(=O)N(Cc2ccncc2)C2C=CS(=O)(=O)C2)cc1 (stereo not drawn) [I-348] ?
4.30 to 5.00

Could you share which pIC50 value was measured for CC(C)(N)c1ccc(CN(C(=O)Cc2ccc(S(F)(F)(F)(F)F)cc2)C2C=CS(=O)(=O)C2)cc1 (stereo not drawn) [I-700] ?
5.00 to 5.30

Could you share which pIC50 value was measured for CC(C)(O)c1cc(CN(C(=O)C(OCC2CC2)c2ccc(-c3ccc(F)c(F)c3)cc2F)[C@@H]2C=CS(=O)(=O)C2)ccn1 (single isomer, unassigned) [I-815] ?
> 6.30

Could you share which pIC50 value was measured for CN(Cc1ccncc1)C(=O)c1ccc(CN(C(=O)Cc2ccc(-c3ccc(F)c(F)c3)cc2F)C2C=CS(=O)(=O)C2)cc1 (stereo not drawn) [I-778] ?
5.30 to 6.30

Could you share which pIC50 value was measured for COc1cc(CN(C(=O)C2Cc3cc(-c4ccc(F)cc4)ccc32)C2C=CS(=O)(=O)C2)ccn1 (stereo not drawn) [I-176] ?
5.30 to 6.30

Could you share which pIC50 value was measured for O=C(CCCC[C@@H]1SC[C@@H]2NC(=O)N[C@@H]21)NCCOCCOCCOCCOCCC(=O)Nc1ccc(Cn2cc(CCCC(=O)N3CCN(C(=O)c4ccc(CN(C(=O)Cc5ccc(-n6cccc6)cc5F)C5C=CS(=O)(=O)C5)cc4)CC3)nn2)nc1 (stereo partly drawn) [II-3] ?
4.30 to 5.00

Could you share which pIC50 value was measured for CC(C)(O)c1cc(CN(C(=O)Cc2ccc(C(F)(F)C(F)(F)F)cc2)C2C=CS(=O)(=O)C2)ccn1 (single isomer, unassigned) [I-673] ?
> 6.30

Could you share which pIC50 value was measured for O=C(Cc1ccc(-n2cccc2)cc1)N(Cc1ccccc1)C1C=CS(=O)(=O)C1 (single isomer, unassigned) [I-262] ?
5.00 to 5.30

Could you share which pIC50 value was measured for COc1cc(CN(C(=O)Cc2c(F)cc(-c3ccc(F)cc3)cc2F)C2C=CS(=O)(=O)C2)ccn1 (stereo not drawn) [I-168] ?
5.30 to 6.30

Could you share which pIC50 value was measured for CN(C)Cc1cccn1-c1ccc(CC(=O)N(Cc2ccccc2)C2C=CS(=O)(=O)C2)cc1 (stereo not drawn) [I-567] ?
< 4.30

Could you share which pIC50 value was measured for CC(C)(O)c1cc(CN(C(=O)Cc2ccc(-c3ccc(F)c(F)c3)cc2F)C2C=CS(=O)(=O)C2)ccn1 (single isomer, unassigned) [I-332] ?
4.30 to 5.00

Could you share which pIC50 value was measured for CC(C)(O)c1cc(CN(C(=O)Cc2ccc(-c3cccc(Cl)c3)cc2F)C2C=CS(=O)(=O)C2)ccn1 (stereo not drawn) [I-70] ?
> 6.30

Could you share which pIC50 value was measured for Cn1c(CC(=O)N(Cc2ccncc2)C2C=CS(=O)(=O)C2)nnc1-c1ccccc1 (stereo not drawn) [I-443] ?
< 4.30
